Form field: melting point (one value per entry).

Guide cases for melting point, answers given:
# input Entry "C=C(C)C(=O)NCCC#N" : reported melting point = ?
# output 46 to 48 °C

# input Entry "CCOC(=O)/C=C/c1c(-c2ccc(F)cc2)n(CCF)c(=O)c2ccccc12" has what melting point?
# output 136 to 137 °C

# input Return reported melting point; argument: "C#CC#Cc1ccc(C(=O)O)cc1"
# output > 230 °C

# input What value of melting point has been reported for the following molecule? CCCC1CCC(C2CCC(C3CCC(C(=O)OC)C(=O)C3)CC2)CC1 (stereo not given)
# output 154 °C

# input Given "Fc1ccc(-n2nnc3cccnc32)c(F)c1" , state its recorded melting point.
# output 132 °C

# input Could you tell me which melting point is on file for "CCOC(=O)c1c[nH]c(-c2ccccc2OCc2ccccc2)n1" ?
# output 203 to 205 °C

# input Suppose we examine the molecule "COC(=O)c1cc(C)c(-c2cccc(OCc3ccc(COC(=O)c4ccccc4)c(COC(=O)c4ccccc4)c3)c2C)c(C)c1" ; what melting point value has been reported?
# output 131 to 132 °C

# input Form field: reported melting point of "COc1cc(C)cc(C2=NC(C)(C)CO2)c1N"
# output 135 to 138 °C

# input Quick one: melting point of "O=C(Nc1c(C(O)(C(F)(F)F)C(F)(F)F)ccc2ccccc12)c1ccccc1Cl" ?
# output 209 to 211 °C

Continuing:
# input Quick one: melting point for "Fc1cccc([C@@H]2COCC(=S)N2)c1" ?
# output 124 to 125 °C

====

quantity-kind: melting point

Record excerpt, results attached:
# input Give its melting point value. Item: CC(C)=NOCC(C)OC(=O)COc1ccc(Cl)c2cccnc12 (stereo not given)
# output 102 °C

# input Fill in: melting point of "Nc1nc(-c2ccc(CCCCN3CCN(c4cccc(C(F)(F)F)c4)CC3)cc2)cs1" is ___
# output 174 to 179 °C

# input Return reported melting point; argument: "CC(C)Oc1cccc(-c2ccc3cnc(Nc4ccc(C5CCN(CC(N)=O)CC5)cc4)nn23)c1"
# output 233 to 235 °C

# input Quick one: melting point for "Oc1ccc(CNCc2cccc(C(F)(F)F)c2)c2cccnc12" ?
# output 127 to 129 °C

# input I have this compound here, "CCOC(=O)c1nccn1-c1nc(-c2ccc(Cl)cc2)c(CCCOc2ccccc2OC)o1" , and I need its recorded melting point.
# output 90 to 91 °C

Continuing:
# input Entry "Cc1c(C(=O)Nc2ccc(N3CCC(N4CCOCC4)CC3)c(C#N)c2)cnn1-c1ccc(Br)cc1" has what melting point?
# output 250 to 252 °C

# input Which value of melting point has been reported for "CC(C)n1nc(-c2ccc(O)cc2)c2sccc2c1=O" in the records?
# output 256 to 257 °C

# input Record request: melting point value, item "CC(C)Cn1cnc2c(N)nc3cc(CCc4ccccc4)ccc3c21"
# output 172 to 173 °C

====

Measured melting point, listed per entry for reference.

Check out these entries, answers already filled in.
# input Query: melting point; subject: "CC(=O)N[C@@H]1CN2C(=O)N(c3cc(Cl)nc(Cl)c3)C(=O)[C@@]2(Cc2ccc(OC(F)(F)F)cc2)C1"
# output 127 °C

# input Recorded melting point for "Nc1cc(Oc2ccc(NC(=O)Nc3ccc(-c4ccncc4)c(C(F)(F)F)c3)cc2)ncn1" , please?
# output 131 to 135 °C

# input Tell me the measured melting point of "O=C(O)c1cc2c3ccccc3[nH]c(=S)n2n1" , please.
# output 272 to 273 °C

# input What value of melting point has been recorded for this entry: CSC1C(=O)Nc2cccc(-c3ccccc3)c21 (configuration not stated)
# output 182 to 185 °C

# input Given the entry O=C1Nc2ccccc2SC1c1ccc(F)cc1 (configuration not stated) , report its measured melting point.
# output 216 to 219 °C

Further cases:
# input Recorded melting point of "Clc1cc2snnc2s1" , please.
# output 78 to 79 °C

# input Field request: melting point | item: CC(=O)OC1C(C)=C(C)C(=O)N1c1ccc(Cl)c(Cl)c1 (configuration not stated)
# output 109 to 110 °C

# input # lookup: melting point of "CCOC(=O)c1ncc2[nH]c3cccc(OCc4ccccc4)c3c2c1COC"
# output 130 to 131 °C

# input Dear colleague, I am looking for the recorded melting point of the following compound: CCC(C(=O)N(C)C)n1cc(Cl)c(-c2ccccc2)n1 (configuration not stated)
# output 94 to 96.5 °C

# input What does the record list as melting point for "CC(C)CC(CO)(CO)CC(C)C" ?
# output 75 to 77 °C

# input If you can, please state the reported melting point value of O=C1c2ccccc2C(O)N1CCO[N+](=O)[O-] (configuration not stated) .
# output 143 to 145 °C

# input Would you kindly share the measured melting point for "Nc1ccc(O)cc1/C=C/C(=O)CC(=O)/C=C/c1ccc(O)cc1" ?
# output 186 to 192 °C

====

List of melting point values.

# input Given the entry "CS(=O)(=O)OCCCCCc1ccc(OCc2coc(/C=C/c3ccccc3)n2)cc1" , report its measured melting point.
# output 105 to 106 °C

# input # melting point lookup, item Cc1nc(C)c(N2N=C(c3ccc([N+](=O)[O-])cc3)c3cc4c(cc3CC2C)OCO4)o1 (stereo not drawn)
# output 76 to 78 °C

Further cases:
# input Need melting point, item "O=Cc1cc(Cl)ccc1OCCc1ccccc1"
# output 73 to 74 °C

====

quantity-kind: melting point

Here's what some known entries look like.
# input Can you look up the measured melting point of COc1cc(OCC(=O)O)c2c3c(n(Cc4ccccc4)c2c1)CCCC3C(N)=O (stereo not given) for me?
# output 251 to 254 °C

# input State the recorded melting point for this entry: CC(C)(C)C(OCc1ccc(Cl)cc1)c1cncnc1 (stereo not given)
# output 77 to 78.5 °C

# input Fill in: melting point of "CCOC(=O)C=CC(=O)c1ccc(Cl)cc1" is ___
# output 62.5 to 63.5 °C

# input Can you share its melting point? I mean this compound: "O=C(O)c1cc(OCCCCCCOc2ccc(-c3ccccc3)cc2)ccc1OCc1ccccc1"
# output 131 to 133 °C

# input Please look up its melting point: c1csc(C2NCCc3ccccc32)c1 (stereo not given)
# output 114 to 116 °C

# input Please give the measured melting point for this compound: "NC(=O)NCc1cc(Cl)cc(-c2csc(N=C(N)N)n2)n1"
# output > 300 °C

# input # lookup: melting point of "CCOC(=O)Cc1ccc(-c2nc(COc3ccc(COc4nn(-c5ccccc5)cc4/C=C/c4csc(COC(=O)c5ccccc5)n4)cc3OC)c(C)o2)cc1"
# output 116 to 117 °C

# input Quick check: melting point of "COc1ccc2ccccc2c1-c1c(C)c2c(c(C)c1P(c1ccccc1)c1ccccc1)COC2" ?
# output 159 °C

Others:
# input Can you share its melting point? I mean this compound: "COc1ccc(C(=O)C=CN(C)C)cc1"
# output 82 to 85 °C

# input Look up melting point for this compound: "CC(C)(Cl)c1cc(C(C)(C)Cl)cc(C(C)(C)Cl)c1"
# output 64 °C

====

Entries and their melting point

// solved cases for melting point follow
# input Find the recorded melting point belonging to "COc1ccccc1Cc1nc2n(c1Cc1ccccc1OC)CCS2" and report it.
# output 212 to 213 °C

# input Consider the compound shown here: "Cc1sc(CCc2ccc(C=CC=O)cc2)nc1-c1ccccc1" What is its recorded melting point?
# output 94 to 95 °C

More entries:
# input Record request: melting point value, item "CCOC(=O)c1[nH]c(CC)c(CC(C)C)c1C"
# output 94 to 96 °C

# input So what does the record say about melting point for "COc1ccc(CNC(=O)[C@@H](NC(=O)[C@H](NCc2cccc3ccccc23)[C@H](O)[C@H](Cc2ccccc2)NC(=O)OC(C)(C)C)C(C)C)c(O)c1" ?
# output 95 to 98 °C

# input Fill in: melting point of "O=C(c1ccc(-c2ccccc2)cc1)c1ccc2n1Cc1ccccc1N(C(=O)COc1ccc(Cl)cc1)C2" is ___
# output 155 to 157 °C

# input Entry "COc1ccccc1CNc1ccc2c(C(=N)NO)cccc2n1" has what melting point?
# output 161 °C

# input State the recorded melting point for this entry: COc1cc(OC)nc(C(CC(=O)C(C)(C)C)C(=O)NS(C)(=O)=O)n1 (centres undefined)
# output 97 to 98 °C

# input Recorded melting point for "O=C1c2cccc3cccc(c23)C(=O)N1CCCCBr" , please?
# output 113 to 115 °C

# input Would you mind telling me what melting point value was observed for Cc1nc2ccc(S(=O)(=O)n3c(COC(C)C(=O)O)cc4cc(Cl)ccc43)cc2s1 (centres undefined) ?
# output 106 to 108 °C

====

quantity-kind: melting point

Use the examples below as a reference point.
# input Look up melting point: CCCOC(Cc1ccc(OCCc2nc(C3CC3)oc2C)c2ccsc12)C(=O)O (stereo unspecified)
# output 61 to 63 °C

# input Any idea what its melting point is? The molecule is "COc1cc(-c2nc(Nc3ccc(C)cc3)c3ccccc3n2)cc(OC)c1OC"
# output > 250 °C

# input State the recorded melting point for this entry: "CC(=O)ON1C(C)(C)CC(OC(=O)NCCCCCCNC(=O)OC2CC(C)(C)N(OC(C)=O)C(C)(C)C2)CC1(C)C"
# output 158 to 163 °C

Others:
# input Need melting point, item COc1cccc(-c2ccc3c(c2)C(C)(C(F)(F)F)OC(=O)N3)c1 (stereo unspecified)
# output 178 to 179 °C

# input Give the measured melting point of "O=C1CCC(c2ccc(Cl)c([N+](=O)[O-])c2)=NN1" .
# output 190 to 193 °C

# input Reported melting point, molecule "Cc1cccc2ncn(-c3nnn[nH]3)c(=O)c12" : ____
# output 280 to 281 °C
